Test system: U2OS
Assay text: Multiplex assay against U2OS
Type: toxicity, cell-based
Test conditions: human, 12 h, 1 µM, compound concentration 1 uM, replicate 2
Can you tell me Total Cell Count for the items I'm about to list?
// no unit string in output, number only

IN: Please look up its Total Cell Count: `CN(C)c1ccnc2sc3c(=O)n(N4CCCCCC4)cnc3c12`
OUT: 132

IN: Follow-up item: CCCN1CCC[C@@H]2Cc3n[nH]cc3C[C@H]21.Cl [QUINPIROLE HYDROCHLORIDE]
OUT: 118

IN: Follow-up item: CN1CCN2c3ncccc3Cc3ccccc3C2C1 (stereo not given) [MIRTAZAPINE]
OUT: 81

IN: Follow-up item: CNC[C@H](O)c1ccc(O)c(O)c1 [EPINEPHRINE]
OUT: 92

IN: Follow-up item: CC1(COc2ccc3c(c2)ncn3-c2ccc3cccc(N4CCC(N)CC4)c3n2)COC1 [CRENOLANIB]
OUT: 86

IN: Follow-up item: Cl.Clc1ccc2nsnc2c1NC1=NCCN1 [TIZANIDINE HYDROCHLORIDE]
OUT: 140

IN: Follow-up item: `O=C1COc2nccc(-c3ccccc3F)c2CN1Cc1cc(C(F)(F)F)cc(C(F)(F)F)c1`
OUT: 108

IN: Follow-up item: c1cc(OCCCN2CCCCC2)ccc1CN1CCCCC1 [JNJ-5207852]
OUT: 106

IN: Follow-up item: CC(=O)NCCc1c(Cc2ccccc2)[nH]c2ccccc12 [LUZINDOLE]
OUT: 134

IN: Follow-up item: Cc1ccc(C(C)(O)c2nc3ccccc3s2)c(C)c1 (stereo not given)
OUT: 141
